Value source: PubChem BioAssay (NCI)

tested on: SNB-75 CNS; experiment: NCI-60 one-dose screen, 48 h (100 = growth as untreated, 0 = no growth, -100 = all killed); details: 10 µM unless noted
About 83,000 compounds went through this panel and 20% of them were active in at least one assay; those are over-represented in the sample as a whole.
Measure: growth (%)
Write it as a number; the unit % goes unstated.

[
  {
    "Compound": "Cc1cc(=O)oc2cc(Oc3nc(Br)cn4c(Br)cnc34)ccc12",
    "growth, %": -2.07
  },
  {
    "Compound": "Cc1ccc(NC(=O)c2sc3nc(C)c(C(O)c4ccccc4)cc3c2N)cc1 (stereo not drawn)",
    "growth, %": 22.5
  },
  {
    "Compound": "Cc1ccc(C(=O)c2ccc(CC(=O)N/N=C/c3cccc(O)c3O)n2C)cc1",
    "growth, %": 25.4
  }
]

growth recorded for this compound, CCCOC(=O)Nc1nc2ccc(SCC)cc2s1 , is 90.5

growth recorded for this compound, CCN(CC)CCOc1ccc2ccc(=O)oc2c1 , is 107

growth recorded for this compound, CC1=C2CC/C(C)=C/CC[C@]3(C)O[C@H]3CC/C(C)=C/[C@H]2OC1 , is 86.6

growth recorded for this compound, CCN(CC)CCCC(Cc1ccccc1)Nc1c2ccc(Cl)cc2nc2ccc(OC)cc12 (stereo not drawn) , is 10.6

growth recorded for this compound, O=C1Nc2ccc(Cl)cc2/C1=C/c1ccc[nH]1 , is 114

---

test system: COLO 205 colon; test: NCI-60 one-dose screen, 48 h (100 = growth as untreated, 0 = no growth, -100 = all killed); details: 10 µM unless noted
About 83,000 compounds went through this panel and 20% of them were active in at least one assay; those are over-represented in the sample as a whole. Calls of active or inactive are those of the source. How the source made its calls: active means growth percent below 10; inactive means the rest.
Measure: growth

[
  {
    "Smiles Notation": "N#Cc1c(-c2ccc(Br)cc2)nc2c(N=Nc3ccc(S(N)(=O)=O)cc3)c(N)nn2c1N",
    "Assay Result": "25.5% (inactive)"
  },
  {
    "Smiles Notation": "O=C(/C=C/c1ccccc1)N(C1CCCCC1)C1CCCCC1",
    "Assay Result": "99.9% (inactive)"
  },
  {
    "Smiles Notation": "CCCN(CCSSCCNc1nc(N(C)O)nc(N(C)O)n1)c1nc(N(C)O)nc(N(C)O)n1",
    "Assay Result": "24.2% (inactive)"
  }
]

growth recorded for this molecule, CC(C)c1ccc2c(c1)CC[C@H]1[C@](C)(C(=O)OCC#CCN3CCCC3)CCC[C@]21C , is 44.7% (inactive)

---

system: SK-MEL-2 melanoma; experiment: NCI-60 one-dose screen, 48 h (100 = growth as untreated, 0 = no growth, -100 = all killed); conditions: 10 µM unless noted
This is part of a sample that, as a whole, favours compounds with a hit. Of some 83,000 tested, about 20% had one in any assay.
So basically: growth at 50% or higher? That is fulfilled. Lower than 50%? That is not fulfilled.

For orientation, consider the following solved cases.
[
  {
    "Compound": "Clc1ccc(-c2nc(C(Cl)Cl)nc3cc(-c4ccccc4)nn23)cc1",
    "Label Value": "fulfilled"
  },
  {
    "Compound": "COc1cc(C=C2C(=O)NC(=S)NC2=O)cc(CN2CCCC2)c1O",
    "Label Value": "fulfilled"
  },
  {
    "Compound": "COCCn1cc(-c2nc(-c3cc4cccnc4n3C)cs2)c2ccccc21",
    "Label Value": "not fulfilled"
  }
]

// query State whether the measured growth reaches 50%, counting equality as reaching it, for CS(=O)(=O)Nc1cc(-c2ccc3ncnc(Nc4ccc5c(cnn5Cc5ccncc5)c4)c3c2)cnc1Cl
// result not fulfilled

// query State whether the measured growth reaches 50%, counting equality as reaching it, for CCCCO[C@@H]1C=C2[C@H]3CC(C)(C)C(=O)C[C@]3(C(=O)O[C@@H]3O[C@H](CO[C@@H]4O[C@H](CO)[C@@H](OC5OC(C)C(O)C(O)C5O)[C@H](O)[C@H]4O)[C@@H](O)[C@H](O)[C@H]3O)CC[C@@]2(C)[C@]2(C)CC[C@H]3C(C)(C)C(=O)CC[C@]3(C)[C@@H]12 (stereo not given in full)
// result fulfilled

// query State whether the measured growth reaches 50%, counting equality as reaching it, for Cc1ccc(Cc2cnc(NC(=O)/C=C/c3ccc(C)o3)s2)cc1
// result fulfilled

// query State whether the measured growth reaches 50%, counting equality as reaching it, for COC(=O)c1ccc2c(c1)c1c(C)c3cnccc3c(C)c1n2C
// result not fulfilled

// query State whether the measured growth reaches 50%, counting equality as reaching it, for OC1(c2ccccc2)c2ccccc2N(c2ccccc2)c2ccc(Cl)cc21 (stereo not given)
// result not fulfilled

// query State whether the measured growth reaches 50%, counting equality as reaching it, for COc1ccc2[nH]cc(-c3nonc3-c3c[nH]c4ccc(Br)cc34)c2c1
// result fulfilled

// query State whether the measured growth reaches 50%, counting equality as reaching it, for CC1SC(c2ccccc2O)N(NC(=O)CCC(=O)c2nc3ncccc3[nH]2)C1=O (stereo not given)
// result fulfilled

// query State whether the measured growth reaches 50%, counting equality as reaching it, for CCN1C(=O)N(CC)C2C1NN=c1s/c(=C\c3ccc(OC)cc3)c(=O)n12 (stereo not given)
// result not fulfilled

// query State whether the measured growth reaches 50%, counting equality as reaching it, for O=S(=O)(NCCNc1nccc(-c2c(-c3ccc(F)c(O)c3)nc3sccn23)n1)c1ccc(Cl)cc1
// result not fulfilled

// query State whether the measured growth reaches 50%, counting equality as reaching it, for CCN(CC)CCCC(Cc1ccccc1)Nc1c2ccc(Cl)cc2nc2ccc(OC)cc12 (stereo not given)
// result not fulfilled

// query State whether the measured growth reaches 50%, counting equality as reaching it, for CC(C)C1C2=C(NCCN1C(=O)c1ccncc1)C(C)(C)N(Cc1ccccc1)C2=O (stereo not given)
// result fulfilled

// query State whether the measured growth reaches 50%, counting equality as reaching it, for FC(F)(F)c1[nH]ncc1-c1nc2ccc3[nH]ncc3c2c2c1CCCC2
// result not fulfilled

---

system: COLO 205 colon; assay: NCI-60 one-dose screen, 48 h (100 = growth as untreated, 0 = no growth, -100 = all killed); conditions: 10 µM unless noted
The panel holds about 83,000 compounds, 20% with a hit somewhere; the sample as a whole holds those more often.
Examples of molecules with documented growth follow.
Write it as a number; the unit % goes unstated.

# annotated cases, reported growth shown
[
  {
    "Molecule": "CN1CCOCCN(C)Cc2ccc3ccc(cc3c2)CN(C)CCOCCN(C)Cc2ccc3ccc(cc3c2)C1",
    "System": "COLO 205 colon",
    "Measure": "growth",
    "Assay Result": 94.6
  },
  {
    "Molecule": "COc1cc(N2C(=O)[C@H](Cl)C2c2ccc(SC)cc2)cc(OC)c1OC (stereo partly drawn)",
    "System": "COLO 205 colon",
    "Measure": "growth",
    "Assay Result": -45.6
  }
]

growth recorded for this molecule, Nc1cc(-c2ccc(Cl)cc2)nn1-c1nnc(/C=C/c2ccco2)c(=O)[nH]1 , is 72.6

---

system: SF-539 CNS; assay: NCI-60 one-dose screen, 48 h (100 = growth as untreated, 0 = no growth, -100 = all killed); settings: 10 µM unless noted
The panel holds about 83,000 compounds, 20% with a hit somewhere; the sample as a whole holds those more often.
Examples of compounds with documented growth follow.
Write it as a number; the unit % goes unstated.

# annotated cases, reported growth shown
[
  {
    "Compound": "CN(C)c1ccc(CNCCO)cc1",
    "growth / %": 97.5
  },
  {
    "Compound": "O=C(/C=C/c1ccco1)Nc1ncc(Cc2cc(Cl)ccc2Cl)s1",
    "growth / %": -18.8
  },
  {
    "Compound": "COC12C=C/C(=C(/C(=O)OCCSc3ccnn3C)C(=O)CCCCCCCCC3(OC)C=C/C(=C(/C(=O)OCCSc4ccnn4C)C(=O)CCCCCCCC1)O3)O2",
    "growth / %": -0.264
  },
  {
    "Compound": "Cc1ccc2nc(-c3ccc(C(=O)N/N=C/c4ccc([N+](=O)[O-])cc4)cc3)[nH]c2c1",
    "growth / %": 97.5
  },
  {
    "Compound": "COc1cc(C=C2C(=O)NC(=S)NC2=O)cc(CN2CCCC2)c1O",
    "growth / %": 101
  },
  {
    "Compound": "N#Cc1ccccc1-c1ccc(CN2C(=O)S/C(=C\\c3ccc(Br)cc3)C2=O)cc1",
    "growth / %": 99.7
  },
  {
    "Compound": "COc1cc(N2C(=O)[C@H](Cl)C2c2ccc(SC)cc2)cc(OC)c1OC (some centres undefined)",
    "growth / %": 8.03
  },
  {
    "Compound": "COc1ccc(Oc2ccc(/C=C/C(=O)c3ccc(OC)c(OC)c3)cc2)cc1",
    "growth / %": 100
  },
  {
    "Compound": "CCCCn1c(NC(C)=O)c(S(=O)(=O)c2ccccc2)c2nc3ccccc3nc21",
    "growth / %": 97.6
  },
  {
    "Compound": "Cc1nn(C)c2ncnc(N/N=C/c3cccc(O)c3O)c12",
    "growth / %": 5.37
  }
]

growth recorded for this compound, COc1cc2c(c(OC)c1OC)C(=O)CC(c1cccc(C(=O)Nc3ccc(C#N)cc3)c1)O2 (centres undefined) , is 93
